I'd be grateful if you could share measured MIC for these entries.
test system: A. non-baumannii isolates (n = 87); assay: MIC, broth microdilution (EUCAST), A. non-baumannii isolates; type: cell-based, Acinetobacter spp. (non-baumannii); details: Acinetobacter pittii, isolate NO-Ab78, Acinetobacter pittii; in combinations ETZ fixed at 8 mg/L; read-out: MIC
# value in µg/mL; strip the unit string

Q: // map CO/N=C(\C(=O)N[C@@H]1C(=O)N2C(C(=O)[O-])=C(C[N+]3(C)CCCC3)CS[C@H]12)c1csc(N)n1 [cefepime] to recorded MIC (system: A. non-baumannii isolates (n = 87))
Result: 1

Q: // map CC1(C)[C@H](C(=O)O)N2C(=O)C[C@H]2S1(=O)=O [sulbactam] to recorded MIC (system: A. non-baumannii isolates (n = 87))
Result: 0.5

Q: // map C[n+]1ccn(C[C@@]2(C)[C@H](C(=O)[O-])N3C(=O)C[C@H]3S2(=O)=O)n1 [enmetazobactam] to recorded MIC (system: A. non-baumannii isolates (n = 87))
Result: 2

---

pIC50: −log10 of the molar value.
As a worked illustration, we turn to pIC50 data collected for PBP1a (Acinetobacter baumannii, UniProt A0ABX6CK30).

Q: // map CC1(C)[C@H](C(=O)O)N2C(=O)C[C@H]2S1(=O)=O [sulbactam] to recorded pIC50 (system: PBP1a (Acinetobacter baumannii, UniProt A0ABX6CK30))
Sequence (A0ABX6CK30 entry or part of it): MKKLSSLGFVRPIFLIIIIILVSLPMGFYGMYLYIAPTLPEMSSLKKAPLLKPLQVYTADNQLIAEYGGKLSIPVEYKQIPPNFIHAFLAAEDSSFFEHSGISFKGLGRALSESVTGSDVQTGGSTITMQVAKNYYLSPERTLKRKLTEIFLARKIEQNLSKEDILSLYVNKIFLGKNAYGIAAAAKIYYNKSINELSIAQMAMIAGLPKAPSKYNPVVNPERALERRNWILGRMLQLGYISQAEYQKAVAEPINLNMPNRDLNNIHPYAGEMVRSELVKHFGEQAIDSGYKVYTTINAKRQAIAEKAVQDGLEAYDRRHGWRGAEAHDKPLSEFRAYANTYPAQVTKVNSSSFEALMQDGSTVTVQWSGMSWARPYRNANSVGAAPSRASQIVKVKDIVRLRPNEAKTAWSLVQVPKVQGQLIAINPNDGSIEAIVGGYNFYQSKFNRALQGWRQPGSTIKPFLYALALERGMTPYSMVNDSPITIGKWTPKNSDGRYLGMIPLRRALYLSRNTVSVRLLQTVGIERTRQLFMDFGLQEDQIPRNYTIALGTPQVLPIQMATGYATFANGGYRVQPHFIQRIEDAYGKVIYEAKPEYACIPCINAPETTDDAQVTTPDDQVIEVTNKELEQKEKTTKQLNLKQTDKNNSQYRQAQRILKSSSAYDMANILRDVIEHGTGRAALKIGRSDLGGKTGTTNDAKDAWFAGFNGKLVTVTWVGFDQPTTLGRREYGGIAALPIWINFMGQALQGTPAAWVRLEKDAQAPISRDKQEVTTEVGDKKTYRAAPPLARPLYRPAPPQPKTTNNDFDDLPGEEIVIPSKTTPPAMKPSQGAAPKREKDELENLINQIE
Result: < 3.56

Q: // map C[n+]1ccn(C[C@@]2(C)[C@H](C(=O)[O-])N3C(=O)C[C@H]3S2(=O)=O)n1 [enmetazobactam] to recorded pIC50 (system: PBP1a (Acinetobacter baumannii, UniProt A0ABX6CK30))
Result: < 3.69

---

tested on: carbapenem-susceptible A. baumannii isolates (n = 54); test: MIC, broth microdilution (EUCAST), carbapenem-susceptible A. baumannii isolates; type: cell-based, Acinetobacter baumannii; conditions: Acinetobacter baumannii, isolate Ab152; ST 132; ADC-2, OXA-120; in combinations ETZ fixed at 8 mg/L
I'd be grateful if you could share measured MIC for these entries.
# value in µg/mL; strip the unit string

Q: // map `C[n+]1ccn(C[C@@]2(C)[C@H](C(=O)[O-])N3C(=O)C[C@H]3S2(=O)=O)n1` to recorded MIC (system: carbapenem-susceptible A. baumannii isolates (n = 54))
Result: 4

Q: // map `CC1(C)[C@H](C(=O)O)N2C(=O)C[C@H]2S1(=O)=O` to recorded MIC (system: carbapenem-susceptible A. baumannii isolates (n = 54))
Result: 1

Q: // map `C[C@@H](O)[C@H]1C(=O)N2C(C(=O)O)=C(SCCN=CN)C[C@H]12` to recorded MIC (system: carbapenem-susceptible A. baumannii isolates (n = 54))
Result: 0.25

Q: // map CO/N=C(\C(=O)N[C@@H]1C(=O)N2C(C(=O)[O-])=C(C[N+]3(C)CCCC3)CS[C@H]12)c1csc(N)n1 [cefepime] to recorded MIC (system: carbapenem-susceptible A. baumannii isolates (n = 54))
Result: 2

---

system: A. non-baumannii isolates (n = 87); assay: MIC, broth microdilution (EUCAST), A. non-baumannii isolates; format: cell-based, Acinetobacter spp. (non-baumannii); conditions: Acinetobacter ursingii, isolate NO-Ab147, Acinetobacter ursingii; in combinations ETZ fixed at 8 mg/L; read-out: MIC
I'd be grateful if you could share measured MIC for these entries.

Q: // map CO/N=C(\C(=O)N[C@@H]1C(=O)N2C(C(=O)[O-])=C(C[N+]3(C)CCCC3)CS[C@H]12)c1csc(N)n1 [cefepime] to recorded MIC (system: A. non-baumannii isolates (n = 87))
Result: 2 µg/mL

Q: // map CC1(C)[C@H](C(=O)O)N2C(=O)C[C@H]2S1(=O)=O [sulbactam] to recorded MIC (system: A. non-baumannii isolates (n = 87))
Result: 2 µg/mL

Q: // map C[n+]1ccn(C[C@@]2(C)[C@H](C(=O)[O-])N3C(=O)C[C@H]3S2(=O)=O)n1 [enmetazobactam] to recorded MIC (system: A. non-baumannii isolates (n = 87))
Result: 4 µg/mL

Q: // map C[C@@H](O)[C@H]1C(=O)N2C(C(=O)O)=C(SCCN=CN)C[C@H]12 [imipenem] to recorded MIC (system: A. non-baumannii isolates (n = 87))
Result: 0.25 µg/mL

---

test system: A. non-baumannii isolates (n = 87); assay: MIC, broth microdilution (EUCAST), A. non-baumannii isolates; format: cell-based, Acinetobacter spp. (non-baumannii); conditions: Acinetobacter; A. non-baumannii isolates (n=87); ETZ fixed 8 mg/L in combinations
I'd be grateful if you could share measured MIC50 for these entries.
# value in µg/mL; strip the unit string

Q: I am curious: what MIC50 value has been reported for CC1(C)[C@H](C(=O)O)N2C(=O)C[C@H]2S1(=O)=O [sulbactam] ?
Result: 1

Q: I am curious: what MIC50 value has been reported for CO/N=C(\C(=O)N[C@@H]1C(=O)N2C(C(=O)[O-])=C(C[N+]3(C)CCCC3)CS[C@H]12)c1csc(N)n1 [cefepime] ?
Result: 2

Q: I am curious: what MIC50 value has been reported for C[n+]1ccn(C[C@@]2(C)[C@H](C(=O)[O-])N3C(=O)C[C@H]3S2(=O)=O)n1 [enmetazobactam] ?
Result: 2

Q: I am curious: what MIC50 value has been reported for C[C@@H](O)[C@H]1C(=O)N2C(C(=O)O)=C(SCCN=CN)C[C@H]12 [imipenem] ?
Result: 0.12
